# measured.target: human recombinant Met kinase (Homo sapiens)
# Construct: purchased Cell Signalling Technology, Beverly, Mass
# Sequence (P08581 25-1390): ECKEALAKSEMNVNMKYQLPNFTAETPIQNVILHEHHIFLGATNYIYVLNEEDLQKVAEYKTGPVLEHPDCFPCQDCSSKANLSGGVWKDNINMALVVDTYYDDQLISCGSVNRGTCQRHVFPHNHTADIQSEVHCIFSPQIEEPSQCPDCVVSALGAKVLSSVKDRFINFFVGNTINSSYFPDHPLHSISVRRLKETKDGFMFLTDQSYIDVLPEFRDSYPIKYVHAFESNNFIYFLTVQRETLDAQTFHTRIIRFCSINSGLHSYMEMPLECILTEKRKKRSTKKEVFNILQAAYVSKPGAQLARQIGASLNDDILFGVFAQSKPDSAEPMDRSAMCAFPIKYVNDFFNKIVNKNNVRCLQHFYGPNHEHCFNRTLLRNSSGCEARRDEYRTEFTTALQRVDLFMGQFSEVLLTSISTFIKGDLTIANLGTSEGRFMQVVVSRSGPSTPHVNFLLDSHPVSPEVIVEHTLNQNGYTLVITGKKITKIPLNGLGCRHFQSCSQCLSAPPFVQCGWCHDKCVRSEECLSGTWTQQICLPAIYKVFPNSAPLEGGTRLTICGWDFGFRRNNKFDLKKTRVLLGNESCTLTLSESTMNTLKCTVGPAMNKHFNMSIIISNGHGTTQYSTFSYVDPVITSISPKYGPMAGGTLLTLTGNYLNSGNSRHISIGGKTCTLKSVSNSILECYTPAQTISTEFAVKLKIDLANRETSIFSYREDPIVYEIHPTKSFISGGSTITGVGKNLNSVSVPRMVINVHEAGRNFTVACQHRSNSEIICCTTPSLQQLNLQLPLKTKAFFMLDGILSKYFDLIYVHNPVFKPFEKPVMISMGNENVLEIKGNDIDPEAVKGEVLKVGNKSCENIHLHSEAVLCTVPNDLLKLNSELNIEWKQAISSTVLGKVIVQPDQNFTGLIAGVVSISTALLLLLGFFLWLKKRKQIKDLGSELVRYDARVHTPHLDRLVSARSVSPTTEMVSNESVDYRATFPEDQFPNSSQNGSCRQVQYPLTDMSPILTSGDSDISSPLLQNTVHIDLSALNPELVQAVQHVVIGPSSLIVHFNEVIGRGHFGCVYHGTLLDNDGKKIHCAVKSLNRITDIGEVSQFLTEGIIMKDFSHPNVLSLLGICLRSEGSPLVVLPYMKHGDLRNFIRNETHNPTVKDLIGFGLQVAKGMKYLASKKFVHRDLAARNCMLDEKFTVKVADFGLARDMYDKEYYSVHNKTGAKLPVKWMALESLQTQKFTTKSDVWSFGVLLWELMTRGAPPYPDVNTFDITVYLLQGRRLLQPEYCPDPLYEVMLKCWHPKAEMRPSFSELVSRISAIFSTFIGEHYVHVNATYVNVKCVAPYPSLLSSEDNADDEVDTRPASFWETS
# measurement.protocol: Colorimetric determination of c-Met kinase activity (HTScan Met Kinase Assay Kit)
# Format: biochemical
# assay.conditions: Table 4B; cells marked *: tested @ 300 nM; read-out: c-Met Enzyme % inhibition
Readings of inhibition for the listed compounds

Examples with their reported inhibition follow.
{"chemical.structure": "CN(C)CCNC(=O)c1c(F)cc(-c2ccc3ncn(Cc4ccc5ncccc5c4)c3n2)cc1F", "measured.target": "human recombinant Met kinase (Homo sapiens)", "result": "50 to 75%"}
{"chemical.structure": "CONC(=O)c1c(F)cc(-c2ccc3ncn(Cc4ccc5ncccc5c4)c3n2)cc1F", "measured.target": "human recombinant Met kinase (Homo sapiens)", "result": "25 to 50%"}
{"chemical.structure": "CN(C)CCNC(=O)c1ccc(-c2ccc3ncn(Cc4ccc5ncccc5c4)c3n2)cc1Cl", "measured.target": "human recombinant Met kinase (Homo sapiens)", "result": "< 25%"}

# input for lookup
Provide the documented inhibition with human recombinant Met kinase (Homo sapiens) as the system for `C/C(=N\NC(N)=S)c1ccc2ncn(Cc3ccc4ncccc4c3)c2n1`
< 25%
